# Protocol Summary: Solubility in PBS buffer by OECD flask method with HPLC quantification
# Assay type: physicochemical
# Condition Context: pH 7.4, PBS buffer pH 7.4, single experiment I, read-out: Solubility (I)
Attribute Measured: solubility at 72 h (µg/mL)
Give the number; µg/mL is assumed, so skip it.

## Input Recorded solubility at 72 h of O=C(CCCCCCC(=O)Nc1ccccc1)NO [vorinostat, reference compound] , please.
## Output 252

###

# Protocol Summary: Solubility in PBS buffer by OECD flask method with HPLC quantification
# Format: physicochemical
# Condition Context: 25 °C, pH 7.4, aqueous buffer, thermodynamic from solid, pH=7.4, flask method, 25 °C, 72 h, mean ±SD, read-out: Solubility
Listed next: entries and their corresponding solubility at 72 h.
Give the number; µg/mL is assumed, so skip it.

Some compounds with known solubility at 72 h results, for comparison:
| Compound | Test Result |
| --- | --- |
| O=C(CCCCCCC(=O)Nc1ccccc1)NO [vorinostat, reference compound] | 255 |
| CC(=O)Nc1ccc(C(=O)Nc2cc(-c3cccnc3)ccc2N)cc1 | 37.7 |
| CC(=O)Nc1ccc(C(=O)Nc2ccccc2N)cc1 [CI‐994, tacedinaline, reference compound] | 200 |

## Input Recorded solubility at 72 h of CC(=O)Nc1ccc(C(=O)Nc2cc(-c3ccccn3)ccc2N)cc1 , please.
## Output 42

###

# Measured On: HDAC1 (Homo sapiens, UniProt Q13547)
# Sequence (Q13547 whole entry): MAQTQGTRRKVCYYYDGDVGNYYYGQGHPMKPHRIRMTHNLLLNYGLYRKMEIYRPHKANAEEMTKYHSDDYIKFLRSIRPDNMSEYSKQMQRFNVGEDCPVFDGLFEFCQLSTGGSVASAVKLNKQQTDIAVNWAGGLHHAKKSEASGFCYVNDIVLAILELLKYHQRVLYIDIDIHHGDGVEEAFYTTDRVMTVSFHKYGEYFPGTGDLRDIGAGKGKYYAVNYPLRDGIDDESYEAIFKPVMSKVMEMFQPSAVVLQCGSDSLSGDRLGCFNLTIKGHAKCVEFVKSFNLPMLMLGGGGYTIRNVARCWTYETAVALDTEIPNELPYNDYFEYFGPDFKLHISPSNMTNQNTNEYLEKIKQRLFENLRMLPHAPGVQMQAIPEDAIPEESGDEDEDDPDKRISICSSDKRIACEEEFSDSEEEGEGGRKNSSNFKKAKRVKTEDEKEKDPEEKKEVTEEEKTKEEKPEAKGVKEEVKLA
# Protocol Summary: IC50-shift experiments (varied preincubation time)
# Format: biochemical
# Condition Context: HDAC1 IC50, preincubation 15 min, preincubation time 15 min at 20°C; triplicates
Attribute Measured: IC50 (nM)
Give the number; nM is assumed, so skip it.

## Input Recorded IC50 of CC(=O)Nc1ccc(C(=O)Nc2cc(-c3ccncc3)ccc2N)cc1 [6 d] , please.
## Output 53.5

###

# Protocol Summary: LogD7.4 by OECD slow-stirring method with HPLC quantification
# Condition Context: 1-octanol/PBS buffer (mutually saturated), pH 7.4, LogD7.4, slow-stirring method, 1-octanol/PBS buffer pH 7.4, 25 °C, 48 h
Attribute Measured: logD at 48 h

## Input Recorded logD at 48 h of CC(=O)Nc1ccc(C(=O)Nc2cc(-c3ccccc3)ccc2N)cc1 , please.
## Output 2.63

## Input Recorded logD at 48 h of CC(=O)Nc1ccc(C(=O)Nc2cc(-c3ccc(F)nc3)ccc2N)cc1 , please.
## Output 1.97

## Input Recorded logD at 48 h of CC(=O)Nc1ccc(C(=O)Nc2cc(-c3ccnc(F)c3)ccc2N)cc1 , please.
## Output 2.2

## Input Recorded logD at 48 h of CC(=O)Nc1ccc(C(=O)Nc2cc(-c3ccncc3)ccc2N)cc1 , please.
## Output 1.75

## Input Recorded logD at 48 h of CC(=O)Nc1ccc(C(=O)Nc2cc(-c3cccnc3)ccc2N)cc1 , please.
## Output 1.7

## Input Recorded logD at 48 h of CC(=O)Nc1ccc(C(=O)Nc2cc(-c3ccc(F)cc3)ccc2N)cc1 , please.
## Output 3.41

## Input Recorded logD at 48 h of CN(C)c1ccc(C(=O)N(CC(=O)NC2CCCCC2)Cc2ccc(C(=O)Nc3cc(-c4ccncc4)ccc3N)cc2)cc1 , please.
## Output 2.68

## Input Recorded logD at 48 h of CC(=O)Nc1ccc(C(=O)Nc2cc(-c3cccnc3F)ccc2N)cc1 , please.
## Output 1.79

## Input Recorded logD at 48 h of CN(C)c1ccc(C(=O)N(CC(=O)NC(C)(C)C)Cc2ccc(C(=O)Nc3cc(-c4ccncc4)ccc3N)cc2)cc1 , please.
## Output 2.29
